Values compiled from ChEMBL document CHEMBL4513216.

Assay: Toxicity liver stage against HepG2, at 10uM
Format: cell-based
Set-up: test concentration 10 uM, cell line HepG2-A16-CD81EGFP
Settings: human, HepG2-A16-CD81EGFP cells; read-out: INHIBITION
assay-readout: cytotoxicity at 10 µM (%)

compound | endpoint-unit | measured
N#Cc1ccc(OCCN2CCn3c(nnc3C3CC3)C2)cc1 | % | -3.75
CC1CCN(C(=O)c2ccn(COc3ccccc3)n2)CC1 | % | -0.107
COCCCN1CCC(NC2CSCCc3ccccc32)CC1 (configuration not stated) | % | -3.32
CCS(=O)(=O)N1Cc2c(Cn3ccnc3)nn(C)c2C1 | % | -2.85
O=C(NC1CC1)N1CC[C@@H](O)[C@@H]1Cc1ccccc1 | % | 1.91
CCc1noc(C(C)N2CCC(NC(=O)c3ccc(C)s3)CC2)n1 (configuration not stated) | % | -9.9
CC(C)c1cc(C(=O)NCCN2CCOCC2)nc(N2CCCC2)n1 | % | 8.82
N#Cc1cccnc1N1CCN(C(=O)CCC(=O)c2cccs2)CC1 | % | -8.7
Cc1nc(C)n(CC2CCCN2CC(=O)Nc2nncs2)n1 (configuration not stated) | % | 14.3
Cc1cc(C(=O)N2CCCC(n3nc(C)cc3C)C2)on1 (configuration not stated) | % | -7.69
O=C(C1CC1)N1CCN2C[C@@H](CO)[C@H](c3ccccc3)[C@H]2C1 | % | 8.52
Clc1ccc2cccnc2c1CN1CCCC1Cn1cncn1 (configuration not stated) | % | 3.91

* * *

// cytotoxicity at 10 µM lookup, one value per entry
Experiment: Toxicity liver stage against HepG2, at 10uM
Format: cell-based
Parameters: test concentration 10 uM, cell line HepG2-A16-CD81EGFP
Conditions: human, HepG2-A16-CD81EGFP cells; read-out: INHIBITION

compound | endpoint-unit | cytotoxicity at 10 µM
CC(C)(C)c1cc(NC(=O)CN(Cc2cccs2)Cc2cccs2)on1 | % | 14.2
O=c1n(CC2CCCCO2)nc(CC2CCNCC2)n1-c1ccccc1 (centres undefined) | % | -6.66
CNC(=O)c1cnc(C)nc1CCNC(=O)CCc1ccccc1 | % | -0.0555
Cc1cnc(C(=O)N2CCN(C(=O)CC(C)C)[C@@H]3CS(=O)(=O)C[C@@H]32)cn1 | % | -3.06
CCCN(CC(=O)N(C)C)C(=O)c1ccc(-c2nc(C)cs2)cc1 | % | -15.7
CCn1ncc(-c2cc(C(F)F)nc3sc(C(N)=O)c(N)c23)c1C | % | 10.3
CC(C)NC(=O)NC[C@H]1OC[C@@H](NCc2cccs2)[C@@H]1O | % | -1.48
COc1cnc(C2(O)CCN(C(=O)c3ccccn3)CC2)c(OC)n1 | % | -8.99
O=C1CC2(CCN(Cc3ccncc3)C2)CN1c1cccc(F)c1 (centres undefined) | % | -152
Cc1nc(CN2CC[C@@H]3O[C@@H](C(=O)N4CCOCC4)C[C@@H]32)cs1 | % | 2.08
Cc1csc(C2CCCCN2C(=O)c2cc(C)n(C)n2)n1 (centres undefined) | % | -17.9
CCCc1cc(=O)[nH]c2nnc(SCC(N)=O)n12 | % | 13.8
COc1cnc(CN2CCN(CC(C)C)C(=O)C2C)cc1O (centres undefined) | % | 3.28
CSc1nccc(N2CCCC(c3nccn3C(C)C)C2)n1 (centres undefined) | % | 7.72
CC(C)CN1CCCC1c1ccc(C(=O)Nc2cn(C)nn2)s1 (centres undefined) | % | -4.69
Cc1cccc(C)c1C(=O)N1C[C@@H](CN2CCOCC2)[C@@H](CO)C1 | % | 0.0453
CSCCC(=O)N(C/C=C/c1ccccc1)CCO | % | -4.47
Cc1ccc(C(=O)O)c(N2Cc3cnc(C(C)(C)C)nc3C2)n1 | % | 5.67
c1cncc(CN2CCn3cc(Cn4cccn4)nc3C2)c1 | % | 4.93
CC(CO)NC(=O)Nc1ccc(S(C)(=O)=O)nc1 (centres undefined) | % | -10.2
Oc1cccc(CN2CCN(C3CCc4ccccc4C3)CC2)c1 (centres undefined) | % | 6.42
CSCCC(Nc1nc(C)cc(C)n1)C(=O)NC1CC1 (centres undefined) | % | -15.3
CC1(c2ncc(CN3CCN(c4ncccn4)CC3)cn2)CCCCO1 (centres undefined) | % | 1.16
Cc1cc(OCCC(=O)NCc2ccc(F)cc2)nnc1C | % | 4.4

* * *

Assay: Toxicity liver stage against HepG2, at 10uM
Format: cell-based
Parameters: test concentration 10 uM, cell line HepG2-A16-CD81EGFP
Conditions: human, HepG2-A16-CD81EGFP cells; read-out: INHIBITION
# cytotoxicity at 10 µM listing for each entry below

molecule | endpoint-unit | cytotoxicity at 10 µM
COCc1nc(C(=O)N2CCCC2c2ccccc2C)cs1 (stereo not drawn) | % | 4.28
CCn1nc2c(cc1=O)CN(Cc1coc(-c3ccccc3)n1)CC2 | % | -10.9
CNc1cncc(C2CCCN(S(C)(=O)=O)C2)n1 (stereo not drawn) | % | 3.19
NC(=O)CN1CCOCC(Cc2ccccc2Cl)C1 (stereo not drawn) | % | 3.18
O=C(NCCOc1ccccc1)NCC(O)c1cccs1 (stereo not drawn) | % | -7.83
CC1CN(CCc2ccncc2)CCO1 (stereo not drawn) | % | -1.99
O=C(c1ccncc1)N1CCC2(CCCN(c3ncc(F)cn3)C2)C1 (stereo not drawn) | % | -105
CN1CCC2(CC1)CN(C(=O)c1cccnc1)c1ccc(Cl)cc12 | % | -109
O=C(CSCc1ccccn1)NCC1CC1 | % | -3.42
Clc1snnc1CN1CCCCC1Cn1cccn1 (stereo not drawn) | % | -14.8
CCN(CC1CCCO1)C(=O)Nc1ccc(F)cc1OC (stereo not drawn) | % | -8.98
COCc1cc(CNC(=O)c2cc(NC(C)=O)ccc2Cl)n[nH]1 | % | 5.3
COc1ccncc1NCc1cscn1 | % | 6.44

* * *

Test: Toxicity liver stage against HepG2, at 10uM
Type: cell-based
Set-up: test concentration 10 uM, cell line HepG2-A16-CD81EGFP
Settings: human, HepG2-A16-CD81EGFP cells; read-out: INHIBITION
cytotoxicity at 10 µM listing for selected compounds.

compound | cytotoxicity at 10 µM
COCC(=O)N1CCCCC1c1nc(C)c2c(n1)N(CC1CC1)C(=O)C2 (centres undefined) | 10.5%
CCC1CN(C(=O)c2cccnc2O)CCC(=O)N1Cc1ccccc1 (centres undefined) | 3.65%
CN1CCN(S(=O)(=O)c2cncc(F)c2)c2ccccc2C1 | -3.69%
O=S1(=O)CCC(CNS(=O)(=O)N2CCc3ccccc3C2)C1 (centres undefined) | -10.7%
c1ccc(Oc2cccc(OC34CCCN(CC3)C4)c2)cc1 (centres undefined) | 0.681%
COc1ccccc1C(C)NC(=O)N1CCN(Cc2ccc(Br)s2)CC1 (centres undefined) | 10.5%
CC(C)(C)c1ccc(C2(C(=O)NCCCS(C)(=O)=O)CC2)cc1 | -12.6%
CCCn1cc(-c2cc(-c3cc(CC)n[nH]3)c(C#N)c(N)n2)c(C)n1 | -6.7%
CC(C)c1nccn1CCC(=O)N1CCCC1c1cccn1C (centres undefined) | -6.66%
Cc1ccc(CN2C[C@@H](c3ccccc3)[C@@]3(CCNC3=O)C2)o1 | -119%
Cc1nc(CN2C[C@@H]3CCCO[C@@H]3[C@H](N(C)C(C)C)C2)cs1 | 6.86%
CN(C)c1ccc(NC(=O)N2CCCCC2c2ncc[nH]2)cn1 (centres undefined) | -1.78%
Cc1nc(CNC(=O)Nc2c(C)n[nH]c2C)cs1 | 3.51%
Cc1ccc(CN2CCOC(C)(c3cnn(C)c3)C2)cc1 (centres undefined) | -4.16%
O=C(NCc1cccnc1N1CCCCC1)c1ccc2cc[nH]c2c1 | 4.1%
CN(CC1(C)COC1)C(=O)c1cc(-c2ccnn2C)nc2ccccc12 | 6.57%
Cc1noc(C)c1CN1CCC2(CC1)CC(Oc1cccnc1)CO2 (centres undefined) | 17.8%
COc1ccc2nnc(C(=O)NCC3CCCC3)nc2c1 | -3.35%
Cc1nc(CN2C(=O)CCC23CCN(Cc2ccoc2)CC3)cs1 | -0.902%
COc1c(CNC2CCc3c(F)cccc32)c(C)nn1C (centres undefined) | 0.665%
Cn1cc(-c2nnc3sc(C4CC4)nn23)cn1 | -3.08%
COC(=O)c1cc(OCC2CCC2)cc(C(=O)NCC(C)(C)O)c1 | 4.01%
N#CCCCn1nnc(C2(NC(=O)c3ccccc3)CCCC2)n1 | 13.6%
Cc1cnn(CC2CCCN2C(=O)c2cc(C)nc3[nH]nc(C)c23)c1 (centres undefined) | -12.4%

* * *

Assay: Toxicity liver stage against HepG2, at 10uM
Assay type: cell-based
Parameters: test concentration 10 uM, cell line HepG2-A16-CD81EGFP
Conditions: human, HepG2-A16-CD81EGFP cells; read-out: INHIBITION

compound | endpoint-unit | cytotoxicity at 10 µM
O=C(c1ccncc1)N1CCOC2(COCCN(c3cncnc3)C2)C1 (stereo not drawn) | % | 8.58
CC(C)Nc1cc(-c2c[nH]nc2C2CCN(C(=O)C3CC3)C2)ccn1 (stereo not drawn) | % | 85
COc1ccc(C2=C(C)C(N3CCc4ccccc4C3)=NS2(=O)=O)cc1 | % | -6.34
CC(NC(=O)Nc1nnc(-c2ccccn2)s1)C(=O)OC(C)(C)C (stereo not drawn) | % | -6.87
CCN(CCn1cccn1)Cc1nc(-c2ccc(F)cc2)oc1C | % | 1.07
O=C(c1cnns1)N1CCN(Cc2ccc(F)cc2Cl)CC1 | % | -127
CC(C)Oc1ccc(CN)c(C(F)(F)F)c1 | % | 0.71
O=C(c1cc[nH]n1)N1CCCC(c2cccc(-n3ccnc3)n2)C1 (stereo not drawn) | % | 6.88
Cc1nc(C(C)C)sc1C(=O)NCCNc1ncccn1 | % | -2.02
O=C(c1cccs1)N1CC[C@H](O)[C@@H]1Cc1ccccc1 | % | -5.99
CCOC1Sc2nnc(C)n2N=C1c1ccc(Br)cc1 (stereo not drawn) | % | -2.92
O=C(c1c[nH]c(=O)c(Cl)c1)N1CCc2ccccc2C1 | % | -11.1
CSc1c[nH]nc1NS(=O)(=O)c1cc(F)ccc1Cl | % | -7.23
CCN1CC(CN(C)Cc2nc(-c3cccc(C)c3)oc2C)CC1=O (stereo not drawn) | % | -9.8
CC(C)(C)NC(=O)NC(=O)CN1C=Nc2ccccc2S1(=O)=O | % | -8.68
CCN(Cc1noc(CC(C)C)n1)Cc1ncccc1C(=O)O | % | -37.2
CCCC(=O)N1CC[C@@H]2[C@H](CC1)N(Cc1cccnc1)CCS2(=O)=O | % | -8.63
Cc1cc(C(=O)NS(=O)(=O)Cc2ccon2)c(C)o1 | % | 4.42
CC(NC(=O)Nc1ccc(S(C)(=O)=O)cc1)c1ccc2c(c1)CC(=O)N2 (stereo not drawn) | % | 0.0793
CC(CCSc1ccccc1)N1CCCN(C(N)=O)CC1 (stereo not drawn) | % | -10.7
CCOCCCNC(=O)C(C)n1cc(Br)cn1 (stereo not drawn) | % | -4.24
NC(=O)C(CNC(=O)Cc1ccsc1)Cc1ccc(F)cc1 (stereo not drawn) | % | 9.21
Cc1ccc(F)c(N2CCCC(Nc3nccn4cnnc34)C2=O)c1 (stereo not drawn) | % | -0.115
CC(C)n1ccnc1C1CCN(c2nccc(C(F)(F)F)n2)CC1 | % | 2.52
CCc1noc(CCC(=O)N[C@@H]2CC[C@@H](n3ccnc3)[C@@H]2O)n1 | % | -15.5
O=C(CN1C=Nc2ccccc2S1(=O)=O)NCc1ccccc1F | % | -3.73
Nc1c(N2CCCC2)ncnc1N1CCOCC1 | % | 12.8
Cc1occc1C(=O)N1C[C@@H]2CCCO[C@@H]2[C@H](N(C)Cc2ccco2)C1 | % | 6.67
CCCc1nc(C)c(C(=O)NCc2ccc(C)n2C)s1 | % | 16.5
Cc1nccc(CNC(=O)CCc2c(C)nc3cc(O)nn3c2C)n1 | % | -1.56
O=C(NCCN1CCCC1)c1nc2c(o1)CN(c1ncccn1)C2 | % | 1.24
Cc1noc(C)c1CN1CCC(N(C)Cc2noc(C(C)C)n2)C1 (stereo not drawn) | % | -6.37
CC(=O)N1CCC(NC(=O)Cc2nc3nc(C)cc(C)n3n2)CC1 | % | 8.52
CC(=O)N1CCC(N2CCC(c3nc(C)cc(C)n3)C2)CC1 (stereo not drawn) | % | -7.87
Cc1ccc(OCCNC(=O)C2CCOCC2)c(C)c1 | % | 16.4
CCc1nnc(SC2CCCN(c3cccc(F)c3)C2=O)n1C (stereo not drawn) | % | 7.17
c1ccc(-c2nc(CCNC3CCOC4(CCOCC4)C3)no2)cc1 (stereo not drawn) | % | 4.47
O=C1Nc2ccccc2CC12CCCN2Cc1ccc(F)cc1 (stereo not drawn) | % | 10.5
FC(F)(F)C1CN(Cc2cccc(-c3ccccn3)c2)CCO1 (stereo not drawn) | % | -7.73
CC1c2ncc(CNC(=O)C3CC3)n2CCN1Cc1cnn(C)c1 (stereo not drawn) | % | -20.2
COc1ccc(Oc2nccnc2C2CCN(C(C)=O)CC2)cc1 | % | -12.4
Cn1cnc(S(=O)(=O)NCCCN2CCCCCC2)c1Cl | % | -9.53
CCC(C)N(Cc1ccncc1)Cc1ccc(-n2cccn2)cc1 (stereo not drawn) | % | -48.3
CC(C)C(=O)NCc1ccc(N(C)C)cc1 | % | -18.1
CCc1ncnc2c1CCN(CCOC)CC2 | % | 5.19
Cc1nc(C)n(CC2CCCN2Cc2cn3cc(Cl)ccc3n2)n1 (stereo not drawn) | % | -16.7
CCCN1CCC(C(=O)NCCN(CC)c2ccccc2C)CC1 | % | 15.7
Cc1ccc(N2CCCC(NCc3ccncc3)C2)nn1 (stereo not drawn) | % | 2.55
